# Test system: Cyperus iria
# method.notes: Preemergence weed control under flooded paddy conditions, CYPIR (Rice Flatsedge); further: meaning of each grade not given here
# Format: in vivo
# setup.conditions: Rate 0.1250 kg/ha; preemergence, flooded paddy; rated three to four weeks after treatment
# binarize herbicidal effect rating, CYPIR: threshold 6 inclusive, high side condition met, low side condition not met

Use these answered entries as a reference point.
compound: Cn1c(C(F)(F)F)cc(=O)n(-c2ccc3snc(C(C#N)=Cc4ccccn4)c3c2)c1=O
assigned.category: condition not met

compound: Cn1c(C(F)(F)F)cc(=O)n(-c2ccc3snc(COS(=O)(=O)c4ccccc4)c3c2)c1=O
assigned.category: condition met

compound: CCCCS(=O)(=O)NC(=O)C(C)Oc1ccc(C)cc1-c1nsc2ccc(-n3c(=O)cc(C(F)(F)F)n(C)c3=O)cc12 (stereo not shown)
assigned.category: condition not met

Ask: Evaluate Cc1ccc(OC(C)C(=O)NS(=O)(=O)C(C)C)c(-c2nsc3ccc(-n4c(=O)cc(C(F)(F)F)n(C)c4=O)cc23)c1 (stereo not shown) : herbicidal effect rating, CYPIR at minimum 6?
Reply: condition not met

Ask: Evaluate Cn1c(C(F)(F)F)cc(=O)n(-c2ccc3snc(COCc4ccc(Cl)cc4)c3c2)c1=O : herbicidal effect rating, CYPIR at minimum 6?
Reply: condition met

The reported measurements were obtained from patent EP0908457B1.
